Would you kindly list IGF-1R/IR Comparison for each of these binders?
- SUBJECT OF TEST: T1, Soluble IGF-1R (R&D Systems, Cat. # 391-GR/CF); recombinant human IGF-1R (human, UniProt P08069 31-935)
- T1 construct: extracellular domain; Eu3+-labelled in the TR-FRET assays; also called sIGF-1R; rhIGF-1R
- METHOD DESCRIPTION: phage ELISA, vs IR
Positions of bridges follow the written chain, without caps; N, C: chain ends. No end group written: not given here.
Give bare numbers, in ratio.

Reference set, count: 3
| BINDER | UNIT LABEL | IGF-1R/IR Comparison |
| --- | --- | --- |
| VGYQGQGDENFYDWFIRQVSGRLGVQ [H2CA-4-F5-IGFR] | ratio | 12.3 |
| SGAKVIVVTGDSGDPFYHKLSELLQGS [B6Eα-2-C10-IR] | ratio | 5.3 |
| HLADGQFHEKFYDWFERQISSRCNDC [H2CA-3-E11-IGFR] | ratio | 2.2 |

State the recorded IGF-1R/IR Comparison for every item in the following list.
1. RGIVAMVEATEVGSDHDPFYHKLSELVQGS [B6Hα-2-C7-IR]
2. IIGGFYSYFNSVLRLGT [NNRPγ-4-A1-IR]
3. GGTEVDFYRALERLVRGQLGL [20E23-3-D8-IGFR]
4. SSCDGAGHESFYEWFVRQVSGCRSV (not fully specified (bridges); cysteine pairing not given here) [H2CA-3-C8-IGFR]
5. SRVAATKEKRPSDDPFYHKLSELLQGS [B6Hα-3-F7-IR]
6. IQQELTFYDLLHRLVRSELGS [20E2B-3-D2-IGFR]
7. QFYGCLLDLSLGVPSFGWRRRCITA (disulfide 5-22 (inferred)) [20C-3-A4-IGFR]
8. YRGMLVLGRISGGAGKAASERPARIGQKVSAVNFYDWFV [A6L-0-H3-IR]

Output line:
[6.7, 6, 11.3, 4.8, 3.1, 11.7, 7.6, 13]

All figures here come from patent US20030236190A1.
